src = the supplement of paper PMC6658780

Test system: Klebsiella pneumoniae KPC-119
Method notes: percent growth inhibition of drug + antibiotic vs DMSO control; higher = more growth inhibition
Cond: antibiotic (0.125x MIC): gentamicin; 7 µM
Counter-ions that a name gives are not always drawn.
Response key: rule met means percent growth inhibition >= 30%; rule not met means percent growth inhibition < 30%.

Answered cases to consult:
| Compound | Test target | Classification |
| --- | --- | --- |
| COC(=O)N/N=C/c1c[n+]([O-])c2ccccc2[n+]1[O-] | Klebsiella pneumoniae KPC-119 | rule not met |
| CCCCC(CC)CNC(=N)NC(=N)NCCCCCCNC(=N)NC(=N)NCC(CC)CCCC (stereo not drawn) [Alexidine dihydrochloride] | Klebsiella pneumoniae KPC-119 | rule met |
| O=C1NCCN1c1ncc([N+](=O)[O-])s1 | Klebsiella pneumoniae KPC-119 | rule met |
| O=C(O)c1cn(-c2ccc(F)cc2)c2cc(N3CCNCC3)c(F)cc2c1=O | Klebsiella pneumoniae KPC-119 | rule met |
| CN[C@@H]1[C@@H](O[C@H]2O[C@H](CO)[C@@H](N)[C@H](O)[C@H]2O)OC2C[C@@H](N)[C@@H](O[C@H]3[C@H](O)[C@@H](O)[C@H](N)C[C@@H]3N)OC2[C@@H]1O (stereo partly drawn) | Klebsiella pneumoniae KPC-119 | rule not met |
| CN(C)c1ccc(O)c2c1C[C@H]1C[C@H]3[C@H](N(C)C)C(O)=C(C(N)=O)C(=O)[C@@]3(O)C(O)=C1C2=O [Minocycline hydrochloride] | Klebsiella pneumoniae KPC-119 | rule not met |
| CO/N=C(\C(=O)N[C@@H]1C(=O)N2C(C(=O)O)=C(C[N+]3(C)CCCC3)CS[C@H]12)c1csc(N)n1 [Cefepime hydrochloride] | Klebsiella pneumoniae KPC-119 | rule met |
| CO[C@@]1(NC(=O)Cc2cccs2)C(=O)N2C(C(=O)O)=C(COC(N)=O)CS[C@@H]21 [Cefoxitin sodium salt] | Klebsiella pneumoniae KPC-119 | rule not met |

Qu. Is the recorded value of percent growth inhibition equal to or greater than 30% for this compound? CC1COc2c(N3CCN(C)CC3)c(F)cc3c(=O)c(C(=O)O)cn1c23 (stereo not drawn)
Ans. rule met

Qu. Follow-up entry: CO[C@H]1/C=C/O[C@@]2(C)Oc3c(C)c(O)c4c(c3C2=O)C2=NC3(CCN(CC(C)C)CC3)NC2=C(NC(=O)/C(C)=C\C=C\[C@H](C)[C@H](O)[C@@H](C)[C@@H](O)[C@@H](C)[C@H](OC(C)=O)[C@@H]1C)C4=O
Ans. rule met

Qu. Follow-up entry: NC[C@@H]1O[C@H](O[C@H]2[C@@H](O)[C@H](O[C@@H]3[C@@H](O)[C@H](N)C[C@H](N)[C@H]3O[C@H]3O[C@H](CO)[C@@H](O)[C@H](O)[C@H]3N)O[C@@H]2CO)[C@H](N)[C@@H](O)[C@@H]1O [Paromomycin sulfate]
Ans. rule not met

====

Test system: Escherichia coli ATCC BAA-2469
Method notes: percent growth inhibition of drug alone vs DMSO control; higher = more growth inhibition
Cond: antibiotic (0.125x MIC): none (0.1% DMSO); 20 µM
Structures can show the parent of a compound that is named as a salt.
Response key: Fulfilled means percent growth inhibition of drug alone >= 20%; Not fulfilled means percent growth inhibition of drug alone < 20%.

| Compound | Classification |
| --- | --- |
| NC(=O)N/N=C/c1ccc([N+](=O)[O-])o1 | Fulfilled |

Qu. Is the recorded value of percent growth inhibition of drug alone equal to or greater than 20% for this compound? OC(CCN1CCCC1)(c1ccccc1)C1CCCCC1 (stereo not drawn) [Procyclidine hydrochloride]
Ans. Not fulfilled

Qu. Follow-up entry: OCCN1CCN(CCCN2c3ccccc3Sc3ccc(C(F)(F)F)cc32)CC1 [Fluphenazine dihydrochloride]
Ans. Not fulfilled

Qu. Follow-up entry: CCCNC(C)(C)COC(=O)c1ccccc1 [Meprylcaine hydrochloride]
Ans. Not fulfilled

Qu. Follow-up entry: NS(=O)(=O)c1cc2c(cc1C(F)(F)F)NC(Cc1ccccc1)NS2(=O)=O (stereo not drawn) [Bendroflumethiazide]
Ans. Not fulfilled

Qu. Follow-up entry: CO/N=C(\C(=O)N[C@@H]1C(=O)N2C(C(=O)O)=C(COC(N)=O)CS[C@H]12)c1ccco1 [Cefuroxime sodium salt]
Ans. Not fulfilled

Qu. Follow-up entry: Nc1c2ccccc2nc2ccccc12
Ans. Fulfilled

====

Test system: Klebsiella pneumoniae NCTC-13439
Method notes: percent growth inhibition of drug + antibiotic vs DMSO control; higher = more growth inhibition
Cond: antibiotic (0.125x MIC): tigecycline; 7 µM
Reported metric: percent growth inhibition (%)
Field format: number, assumed %, no unit text.

As a guide, the following entries are already answered.
| Compound | Display unit | percent growth inhibition |
| --- | --- | --- |
| Cc1c(F)c(N2CCNC(C)C2)cc2c1c(=O)c(C(=O)O)cn2C1CC1 (stereo not drawn) | % | 7.09 |
| COc1c(N2CCNC(C)C2)c(F)cc2c(=O)c(C(=O)O)cn(C3CC3)c12 (stereo not drawn) | % | 17.5 |

Now for another entry.
Qu. Give the reported percent growth inhibition for O=C(O)c1cn(-c2ccc(F)cc2)c2cc(N3CCNCC3)c(F)cc2c1=O (system: Klebsiella pneumoniae NCTC-13439).
Ans. 50

====

Test system: Klebsiella pneumoniae KPC-119
Method notes: percent growth inhibition of drug + antibiotic vs DMSO control; higher = more growth inhibition
Cond: antibiotic (0.125x MIC): colistin; 7 µM
Where a name gives a salt, the structure may show the parent alone.
Listed below: percent growth inhibition values for each entry.
Field format: number, assumed %, no unit text.

As a guide, the following entries are already answered.
| Compound | Display unit | percent growth inhibition |
| --- | --- | --- |
| CN(C)CCCN1c2ccccc2Sc2ccc(Cl)cc21 [Chlorpromazine hydrochloride] | % | 41.9 |
| NCC[C@H](O)C(=O)N[C@@H]1C[C@H](N)[C@@H](O[C@H]2O[C@H](CN)[C@@H](O)[C@H](O)[C@H]2O)[C@H](O)[C@H]1O[C@H]1O[C@H](CO)[C@@H](O)[C@H](N)[C@H]1O [Amikacin hydrate] | % | 38.9 |

Qu. Recorded percent growth inhibition for CCC[C@@H]1C[C@@H](C(=O)N[C@@H]([C@H]2O[C@H](SC)[C@H](O)[C@@H](O)[C@H]2O)[C@H](C)Cl)N(C)C1 [Clindamycin hydrochloride] , please?
Ans. 44.3

====

Tested on: Klebsiella pneumoniae KPC-119
Method notes: percent growth inhibition of drug alone vs DMSO control; higher = more growth inhibition
Cond: antibiotic (0.125x MIC): none (0.1% DMSO); 20 µM
Where a name gives a salt, the structure may show the parent alone.
Reported metric: percent growth inhibition of drug alone (%)
Field format: number, assumed %, no unit text.

| Molecule | percent growth inhibition of drug alone / % |
| --- | --- |
| CCN(CC)CCOC(=O)C1(C2CCCCC2)CCCCC1 [Dicyclomine hydrochloride] | 2.04 |

Qu. Give the reported percent growth inhibition of drug alone for CC(C)(C)CC(C)(C)c1ccc(OCCOCC[N+](C)(C)Cc2ccccc2)cc1 [Benzethonium chloride] (system: Klebsiella pneumoniae KPC-119).
Ans. 2.03

Qu. Follow-up entry: CO[C@H]1/C=C/O[C@@]2(C)Oc3c(C)c(O)c4c(c3C2=O)C2=NC3(CCN(CC(C)C)CC3)NC2=C(NC(=O)/C(C)=C\C=C\[C@H](C)[C@H](O)[C@@H](C)[C@@H](O)[C@@H](C)[C@H](OC(C)=O)[C@@H]1C)C4=O
Ans. 73.8

Qu. Follow-up entry: OCCOCCN1CCN(C2=Nc3ccccc3Sc3ccccc32)CC1 [Quetiapine hemifumarate]
Ans. -3.25

Qu. Follow-up entry: CO/N=C(\C(=O)N[C@@H]1C(=O)N2C(C(=O)O)=C(COC(C)=O)CS[C@H]12)c1csc(N)n1 [Cefotaxime sodium salt]
Ans. 37.8

Qu. Follow-up entry: Clc1ccc(CCC(Cn2ccnc2)Sc2c(Cl)cccc2Cl)cc1 (configuration not stated) [Butoconazole nitrate]
Ans. 2.34

Qu. Follow-up entry: COc1cnc(NS(=O)(=O)c2ccc(N)cc2)nc1
Ans. -0.515

Qu. Follow-up entry: NC[C@@H]1O[C@H](O[C@H]2[C@@H](O)[C@H](O[C@@H]3[C@@H](O)[C@H](N)C[C@H](N)[C@H]3O[C@H]3O[C@H](CO)[C@@H](O)[C@H](O)[C@H]3N)O[C@@H]2CO)[C@H](N)[C@@H](O)[C@@H]1O [Paromomycin sulfate]
Ans. 41.3

Qu. Follow-up entry: O=C1NCCN1c1ncc([N+](=O)[O-])s1
Ans. 74.9

Qu. Follow-up entry: CO[C@@H]1[C@@H](OC(N)=O)[C@@H](O)[C@H](Oc2ccc3c(O)c(NC(=O)c4ccc(O)c(CC=C(C)C)c4)c(=O)oc3c2C)OC1(C)C [Novobiocin sodium salt]
Ans. 5.13

Qu. Follow-up entry: CN[C@@H]1[C@@H](O[C@H]2O[C@H](CO)[C@@H](N)[C@H](O)[C@H]2O)OC2C[C@@H](N)[C@@H](O[C@H]3[C@H](O)[C@@H](O)[C@H](N)C[C@@H]3N)OC2[C@@H]1O (some centres not stated)
Ans. 52.9

Qu. Follow-up entry: CO[C@@]1(NC(=O)CSCC#N)C(=O)N2C(C(=O)O)=C(CSc3nnnn3C)CS[C@@H]21 [Cefmetazole sodium salt]
Ans. 32.6
